biological target: KAT-5 (Homo sapiens (Human), UniProt Q92993); assay: KAT-5 biochemical inhibition assay (SAMDI mass spectrometry)
Sequence (Q92993 other isoform, or with tags, fused parts or gaps): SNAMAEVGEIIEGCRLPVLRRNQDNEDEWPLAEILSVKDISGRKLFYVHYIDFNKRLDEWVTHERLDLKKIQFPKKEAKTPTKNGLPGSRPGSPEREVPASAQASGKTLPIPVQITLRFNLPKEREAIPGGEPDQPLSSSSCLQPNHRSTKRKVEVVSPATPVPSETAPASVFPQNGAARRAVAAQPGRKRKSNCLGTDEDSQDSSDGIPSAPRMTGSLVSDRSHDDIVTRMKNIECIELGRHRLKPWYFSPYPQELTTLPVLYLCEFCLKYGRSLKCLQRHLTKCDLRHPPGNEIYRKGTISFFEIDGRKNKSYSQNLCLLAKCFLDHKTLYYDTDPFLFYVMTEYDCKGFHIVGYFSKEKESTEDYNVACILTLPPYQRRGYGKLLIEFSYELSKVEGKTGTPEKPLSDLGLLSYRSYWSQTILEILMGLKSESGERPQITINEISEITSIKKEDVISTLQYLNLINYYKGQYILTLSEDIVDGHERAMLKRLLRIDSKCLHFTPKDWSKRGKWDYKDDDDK
Catalogue of compounds with associated IC50

Sample answers from the record:
# compound, IC50
measured = [
    ("Cn1cnc(-c2cc(Cl)c(F)c(C(=O)NNS(=O)(=O)C[C@H]3CC[C@H](N)CC3)c2)c1 [Compound I-93]", "10 to 50 µM"),
    ("O=C(NNS(=O)(=O)CC1CCCCC1)c1cc(-c2ccccn2)cc(Cl)c1F [Compound I-5]", "< 10 µM"),
    ("CN(C(=O)OC(C)(C)C)c1ccc(S(=O)(=O)NNC(=O)c2cc(-c3cn(C)cn3)cc(Cl)c2F)cc1 [Compound I-377]", "10 to 50 µM"),
    ("COCCN(Cc1ccc(OC)cc1)C(=O)N1CCC(CS(=O)(=O)NNC(=O)c2cc(-c3cn(C)cn3)cc(Cl)c2F)C1 (stereo not drawn) [Compound I-189]", "< 10 µM"),
]

With those in mind, consider the next compound.
Qu. Report measured IC50 on KAT-5 (Homo sapiens (Human), UniProt Q92993); entry: CN[C@H]1CC[C@@H](CS(=O)(=O)NNC(=O)c2cc(-c3cn(C)cn3)cc(Cl)c2F)CC1 [Compound I-364]
Ans. 10 to 50 µM

====

As shown below, each of these molecules has a reported pIC50 value.
biological target: KAT-7 (Homo sapiens (Human), UniProt O95251); test: KAT-7 biochemical inhibition assay (SAMDI mass spectrometry)
Sequence (O95251 other isoform, or with tags, fused parts or gaps): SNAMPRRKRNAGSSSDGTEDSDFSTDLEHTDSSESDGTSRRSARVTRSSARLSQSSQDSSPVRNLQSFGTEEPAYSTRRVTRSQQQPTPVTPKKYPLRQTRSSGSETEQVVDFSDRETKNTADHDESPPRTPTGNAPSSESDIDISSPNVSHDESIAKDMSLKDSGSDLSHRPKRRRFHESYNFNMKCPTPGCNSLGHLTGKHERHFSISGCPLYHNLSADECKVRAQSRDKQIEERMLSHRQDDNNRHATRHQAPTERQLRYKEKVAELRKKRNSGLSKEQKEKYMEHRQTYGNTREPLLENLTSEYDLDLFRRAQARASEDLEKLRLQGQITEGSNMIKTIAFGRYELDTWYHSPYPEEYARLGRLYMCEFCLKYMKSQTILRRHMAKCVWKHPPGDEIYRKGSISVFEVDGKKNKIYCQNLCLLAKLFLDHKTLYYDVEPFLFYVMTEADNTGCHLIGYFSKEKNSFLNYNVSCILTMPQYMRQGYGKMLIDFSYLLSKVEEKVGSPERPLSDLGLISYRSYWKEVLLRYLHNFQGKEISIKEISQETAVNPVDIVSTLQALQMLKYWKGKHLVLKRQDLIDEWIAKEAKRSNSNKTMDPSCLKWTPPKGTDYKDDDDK
pIC50: −log10 of the molar value.

# molecule, pIC50
measured = [
    ("Cc1ncc(-c2cc(Cl)c(F)c(C(=O)NNS(=O)(=O)C3CCOCC3)c2)n1C [Compound I-54]", "< 4.00"),
]

Qu. Query pIC50 for Cn1cnc(-c2cc(Cl)c(F)c(C(=O)NNS(=O)(=O)C[C@@H]3CCC[C@@H](N)C3)c2)c1 [Compound I-351]
Ans. 4.30 to 5.00

Qu. Provide pIC50 value for the following molecule: Cc1ncc(-c2cc(Cl)c(F)c(C(=O)NNS(=O)(=O)C3CCCCC3)c2)n1C [Compound I-59]
Ans. < 4.00

Qu. State its pIC50: COCCN(Cc1ccc(OC)cc1)C(=O)N1CCCC(CS(=O)(=O)NNC(=O)c2cc(-c3cn(C)cn3)cc(Cl)c2F)C1 (stereo not drawn) [Compound I-216]
Ans. > 5.00

Qu. Let me know recorded pIC50 for CCCS(=O)(=O)N1CCCC(CS(=O)(=O)NNC(=O)c2cc(-c3cn(C)cn3)cc(Cl)c2F)C1 (stereo not drawn) [Compound I-94] , thanks.
Ans. > 5.00

Qu. Provide one value: measured pIC50 of Cn1cnc(-c2cc(Cl)c(F)c(C(=O)NNS(=O)(=O)c3ccc(=O)[nH]c3)c2)c1 [Compound I-381]
Ans. > 5.00

Qu. Give pIC50 for Cn1cnc(-c2cc(Cl)c(F)c(C(=O)NNS(=O)(=O)CC3CCCC(NC(=O)c4ccccn4)C3)c2)c1 (stereo not drawn) [Compound I-234]
Ans. > 5.00

Qu. Please list pIC50 recorded for the molecule CCn1cnc(-c2cc(Cl)c(F)c(C(=O)NNS(=O)(=O)CC3CCCCC3)c2)c1C [Compound I-28]
Ans. > 5.00
